IZ values, listed per item
Target: UniProt P07807
Sequence (whole entry): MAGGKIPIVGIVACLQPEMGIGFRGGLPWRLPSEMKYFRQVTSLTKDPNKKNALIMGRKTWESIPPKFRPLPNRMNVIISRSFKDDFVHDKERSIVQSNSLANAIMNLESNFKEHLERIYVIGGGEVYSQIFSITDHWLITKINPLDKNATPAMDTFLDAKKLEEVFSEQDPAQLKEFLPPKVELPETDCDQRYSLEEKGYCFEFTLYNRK
Reply numerically in mm, unit not repeated.

- smiles: "Nc1nc(N)c(-c2ccc(Br)cc2)c(CCCCCO)n1"
  IZ, mm: 9

So, `Nc1nc(N)c(-c2ccccc2)c(CCCCCO)n1` ? Its IZ was 9

So, `Nc1nc(N)c(-c2ccccc2)c([C@H](O)[C@H](O)CO)n1` ? Its IZ was 5

So, `Nc1nc(N)c(-c2ccc(Cl)cc2)c([C@H](O)[C@H](O)CO)n1` ? Its IZ was 5

So, `Nc1nc(N)c(-c2ccc(Br)cc2)c(CC[C@H](O)[C@@H](O)CO)n1` ? Its IZ was 6

So, `Nc1nc(N)c(-c2ccc(Cl)c(Cl)c2)c(CCCCCO)n1` ? Its IZ was 9

So, `CCc1nc(N)nc(N)c1-c1cccc(Cl)c1` ? Its IZ was 5

###

Molecular target: Dihydrofolate reductase (Homo sapiens) (UniProt P00374)
Sequence (whole entry): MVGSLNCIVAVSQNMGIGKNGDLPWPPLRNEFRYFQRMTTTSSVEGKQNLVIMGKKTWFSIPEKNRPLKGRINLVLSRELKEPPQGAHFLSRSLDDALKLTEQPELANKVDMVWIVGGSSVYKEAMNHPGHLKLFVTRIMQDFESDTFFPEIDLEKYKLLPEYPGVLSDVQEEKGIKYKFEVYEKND
observed_property: IZ (mm)
Reply numerically in mm, unit not repeated.

# example entries with known answers
- smiles: "Nc1nc(N)c(-c2ccc(Br)cc2)c(CC[C@H](O)[C@@H](O)CO)n1"
  units_text: "mm"
  IZ: 5
- smiles: "Nc1nc(N)c(-c2ccc(Cl)cc2)c(CC[C@@H](O)[C@@H](O)CO)n1"
  units_text: "mm"
  IZ: 7
- smiles: "Nc1nc(N)c(-c2ccc(Cl)cc2)c([C@H](O)[C@H](O)CO)n1"
  units_text: "mm"
  IZ: 5

So, `CCc1nc(N)nc(N)c1-c1cccc(Cl)c1` ? Its IZ was 6

###

Molecular target: Dihydrofolate reductase (Homo sapiens)
IZ values, listed per item
Reply numerically in mm, unit not repeated.

So, `Nc1nc(N)c(-c2ccccc2)c(CCCCCO)n1` ? Its IZ was 7

So, `Nc1nc(N)c(-c2ccc(Cl)c(Cl)c2)c(CCCCCO)n1` ? Its IZ was 9

So, `Nc1nc(N)c(-c2ccccc2)c(CC[C@H](O)[C@@H](O)CO)n1` ? Its IZ was 8

So, `Nc1ncc(-c2ccccc2)c(CCc2ccccc2)n1` ? Its IZ was 5

So, `Nc1nc(N)c(-c2ccc(Cl)cc2)c(CC[C@H](O)[C@@H](O)CO)n1` ? Its IZ was 7

So, `Nc1nc(N)c(-c2ccc(Cl)c(Cl)c2)c([C@H](O)[C@H](O)CO)n1` ? Its IZ was 8

So, `Nc1nc(N)c(-c2ccc(Cl)cc2)c(CCCCCO)n1` ? Its IZ was 8

###

IZ values, listed per item
Target: Dihydrofolate reductase (Homo sapiens)
Sequence (whole entry): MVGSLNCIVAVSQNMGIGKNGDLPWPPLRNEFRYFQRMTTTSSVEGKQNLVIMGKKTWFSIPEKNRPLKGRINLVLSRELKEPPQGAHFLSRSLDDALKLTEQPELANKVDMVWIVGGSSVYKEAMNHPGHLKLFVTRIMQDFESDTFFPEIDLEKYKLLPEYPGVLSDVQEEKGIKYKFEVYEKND
Reply numerically in mm, unit not repeated.

So, `Nc1nc(N)c(-c2ccc(Br)cc2)c(CC[C@@H](O)[C@@H](O)CO)n1` ? Its IZ was 6

So, `Nc1nc(N)c(-c2ccc(Br)cc2)c(CCCCCO)n1` ? Its IZ was 8

So, `Nc1nc(N)c(-c2ccc(Br)cc2)c([C@H](O)[C@H](O)CO)n1` ? Its IZ was 5

So, `Nc1nc(N)c(-c2ccc(Cl)c(Cl)c2)c(CC[C@@H](O)[C@@H](O)CO)n1` ? Its IZ was 8

So, `Nc1nc(N)c(-c2ccccc2)c(CC[C@@H](O)[C@@H](O)CO)n1` ? Its IZ was 6

So, `Nc1nc(N)c(-c2ccccc2)c([C@H](O)[C@H](O)CO)n1` ? Its IZ was 5
